# IC50 per entry
# target-of-assay: IMP-1 (Serratia marcescens, UniProt P52699)
# Sequence (P52699 whole entry, looked up): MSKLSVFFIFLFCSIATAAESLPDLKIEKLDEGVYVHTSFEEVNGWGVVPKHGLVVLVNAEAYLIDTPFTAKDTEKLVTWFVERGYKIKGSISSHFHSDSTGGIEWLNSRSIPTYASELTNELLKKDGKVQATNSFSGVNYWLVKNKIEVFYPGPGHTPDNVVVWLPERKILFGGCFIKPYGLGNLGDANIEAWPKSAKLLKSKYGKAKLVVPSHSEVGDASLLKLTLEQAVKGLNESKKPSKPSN
# test-method-notes: biochemical
# Assay type: biochemical
# condition-context: IMP-1 enzyme, CCF2-FA fluorescence assay; read-out: IMP-1 IC50
Dear colleague, please return just the value in nM, with no unit written.

// below: answered molecules
-- ask // returns reported IC50 for input CNC(=O)CNCc1ccc(-c2cccc(S(N)(=O)=O)c2-c2nnn[nH]2)cc1 [Example 371]
-- reply 78.3

-- ask Requested read-out: IC50. Entry: CN1CC(NCc2ccc(-c3cccc(S(N)(=O)=O)c3-c3nnn[nH]3)cc2)C1 [Example 331]
-- reply 392

-- ask What does the record list as IC50 for NS(=O)(=O)c1ccc2ccccc2c1-c1nnn[nH]1 [Example 399] ?
-- reply 15100

-- ask Give the measured IC50 of Cl.Cl.NC1CNCCC1(O)c1ccc(-c2cccc(S(N)(=O)=O)c2-c2nn[nH]n2)cc1 (racemic) [Example 282] .
-- reply 266

-- ask Which IC50 is reported for this molecule? NCc1ccc2cc(-c3cccc(S(N)(=O)=O)c3-c3nn[nH]n3)ccc2n1 [Example 286]
-- reply 204

***
-- ask Tell me the measured IC50 of CS(=O)(=O)Nc1ccc(-c2ccc(C(F)(F)F)c(S(N)(=O)=O)c2-c2nn[nH]n2)cc1 [Example 274] , please.
-- reply 0.637

-- ask Requested read-out: IC50. Entry: NC1Cc2ccc(-c3ccc(C(F)(F)F)c(S(N)(=O)=O)c3-c3nn[nH]n3)cc2C1 (stereo not drawn) [Example 442]
-- reply 16.5

-- ask Please report the recorded IC50 for CN(C)Cc1ccc(-c2cccc(S(N)(=O)=O)c2-c2nnn[nH]2)cc1 [Example 327] .
-- reply 534
